# procedureSummary: Half life in Beagle dog at 10 mg/kg, po measured up to 24 hrs by LC-MS/MS analysis
# Type: ADME, organism-based, Canis lupus familiaris
# conditionNotes: in vivo
measurementType: half-life (h)

>>> print(df.to_string())
                                   molecule  measurementtype  resultunit  reported
0  Cc1ccccc1C1C(=O)N(C)c2cnc(Nc3ccc(S(N)(=O)=O)cc3)nc2N1C (stereo unspecified)        half-life           h      5.79

---

# procedureSummary: AUC (0 to t) in mouse at 10 mg/kg, po measured up to 24 hrs by LC-MS/MS analysis
# Type: ADME, organism-based
# Design: time < 24 hrs, dose 10 mg/kg, route po
# conditionNotes: in vivo
measurementType: AUC(0-t) at 24 h (ng·h/mL)

                                   compound   measurementtype  reported
0  Cc1ccccc1C1C(=O)N(C)c2cnc(Nc3ccc(S(N)(=O)=O)cc3)nc2N1C (stereo unspecified)  AUC(0-t) at 24 h      5580

---

# procedureSummary: Oral bioavailability in mouse at 10 mg/kg measured up to 24 hrs by LC-MS/MS analysis
# Type: ADME, organism-based
# conditionNotes: in vivo
measurementType: bioavailability (%)

In [3]: df
Out[3]:
                                   molecule  resultunit  reported
0  Cc1ccccc1C1C(=O)N(C)c2cnc(Nc3ccc(S(N)(=O)=O)cc3)nc2N1C (stereo unspecified)           %       111

---

# targetSystem: Serine/threonine-protein kinase 3 (Homo sapiens)
# Sequence (Q13188 whole entry): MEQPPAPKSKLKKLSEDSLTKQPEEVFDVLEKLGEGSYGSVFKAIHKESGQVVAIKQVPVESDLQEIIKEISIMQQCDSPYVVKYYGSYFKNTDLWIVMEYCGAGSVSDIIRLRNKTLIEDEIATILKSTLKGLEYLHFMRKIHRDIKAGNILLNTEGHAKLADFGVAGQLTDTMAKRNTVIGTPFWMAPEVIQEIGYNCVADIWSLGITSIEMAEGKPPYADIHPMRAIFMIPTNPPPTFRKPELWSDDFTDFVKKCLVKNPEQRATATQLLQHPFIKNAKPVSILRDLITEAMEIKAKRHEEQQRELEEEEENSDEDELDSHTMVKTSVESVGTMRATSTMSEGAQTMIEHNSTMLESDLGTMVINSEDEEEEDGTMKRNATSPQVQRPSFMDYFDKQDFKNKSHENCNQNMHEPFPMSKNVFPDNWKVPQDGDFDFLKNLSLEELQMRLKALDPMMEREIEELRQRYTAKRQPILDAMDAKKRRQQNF
# procedureSummary: Inhibition of recombinant full length N-terminal GST -tagged human MST2 expressed in baculovirus infected Sf9 insect cells using KKSRGDYMTMQIG as substrate incubated for 1 hr in presence of ATP by ADP-Glo luminescent assay
measurementType: IC50 (nM)

>>> print(df.to_string())
                                   compound  measurementtype  reported
0  Cc1ccccc1C1C(=O)N(C)c2cnc(Nc3ccc(S(N)(=O)=O)cc3)nc2N1C (stereo unspecified)             IC50       652

---

# procedureSummary: Cmax in mouse Pancreas at 50 mg/kg, po measured up to 24 hrs by LC-MS/MS analysis
# Format: ADME, organism-based
# Parameters: dose 50 mg/kg, time < 24 hrs, route po
measurementType: Cmax (ng/mL)

                                   compound  resultunit  reported
0  Cc1ccccc1C1C(=O)N(C)c2cnc(Nc3ccc(S(N)(=O)=O)cc3)nc2N1C (stereo unspecified)       ng/mL     12200

---

# procedureSummary: Half life in Sprague-Dawley rat at 1 mg/kg, iv measured up to 12 hrs by LC-MS/MS analysis
# Assay type: ADME, organism-based
# conditionNotes: in vivo
measurementType: half-life (h)

                                   molecule  measurementtype  reported
0  Cc1ccccc1C1C(=O)N(C)c2cnc(Nc3ccc(S(N)(=O)=O)cc3)nc2N1C (stereo unspecified)        half-life      3.51

---

# targetSystem: Serine/threonine-protein kinase 4 (Homo sapiens)
# Sequence (Q13043 whole entry): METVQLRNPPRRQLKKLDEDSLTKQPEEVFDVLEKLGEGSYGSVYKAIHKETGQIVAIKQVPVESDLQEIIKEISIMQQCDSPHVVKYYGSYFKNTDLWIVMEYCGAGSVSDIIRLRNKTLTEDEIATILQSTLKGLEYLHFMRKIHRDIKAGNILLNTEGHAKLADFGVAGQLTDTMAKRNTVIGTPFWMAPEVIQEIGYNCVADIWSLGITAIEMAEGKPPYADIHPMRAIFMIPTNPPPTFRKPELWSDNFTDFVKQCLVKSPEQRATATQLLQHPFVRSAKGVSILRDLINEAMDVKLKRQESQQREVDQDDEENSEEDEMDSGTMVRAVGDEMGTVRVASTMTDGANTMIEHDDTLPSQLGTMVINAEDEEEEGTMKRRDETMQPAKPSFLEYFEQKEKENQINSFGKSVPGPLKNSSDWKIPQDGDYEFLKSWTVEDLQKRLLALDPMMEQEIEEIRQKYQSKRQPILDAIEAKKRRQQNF
# procedureSummary: Inhibition of recombinant full length N-terminal GST -tagged human MST1 expressed in baculovirus infected Sf9 insect cells using KKSRGDYMTMQIG as substrate incubated for 1 hr in presence of ATP by ADP-Glo luminescent assay
pIC50: −log10 of the molar value.
measurementType: pIC50

                                   compound  reported
0  CC1C(=O)N(C)c2cnc(Nc3ccc(S(N)(=O)=O)cc3)nc2N1C (stereo not given)      6.50
1  Cc1c(F)cccc1C1C(=O)N(C)c2cnc(Nc3ccc(S(N)(=O)=O)cc3)nc2N1C (stereo not given)      6.38
2  CCc1ccccc1C1C(=O)N(C)c2cnc(Nc3ccc(S(N)(=O)=O)cc3)nc2N1C (stereo not given)      7.29
3  Cc1ccccc1C1C(=O)N(C)c2cnc(Nc3ccc(C4(C#N)CC4)cc3)nc2N1C (stereo not given)      6.59
4  CN1C(=O)C2(CCCCC2)N(C)c2nc(Nc3ccc(S(N)(=O)=O)cc3)ncc21      6.57
